From: paper PMC11344278

Biological target: T1, human PCNA (Proliferating Cell Nuclear Antigen) (human, UniProt P12004 1-261, uniformly 2H,13C,15N labelled (for NMR experiments))
T1 construct: 3-residue N-terminal extension left after HRV 3C cleavage, preceding the native initial methionine; human PCNA, UniProt P12004, from the native initial methionine; The methods describe only the isotopically labelled PCNA made for NMR; not shown: His6, N-terminal, cleaved
T1 sequence (P12004 other isoform, or with tags, fused parts or gaps): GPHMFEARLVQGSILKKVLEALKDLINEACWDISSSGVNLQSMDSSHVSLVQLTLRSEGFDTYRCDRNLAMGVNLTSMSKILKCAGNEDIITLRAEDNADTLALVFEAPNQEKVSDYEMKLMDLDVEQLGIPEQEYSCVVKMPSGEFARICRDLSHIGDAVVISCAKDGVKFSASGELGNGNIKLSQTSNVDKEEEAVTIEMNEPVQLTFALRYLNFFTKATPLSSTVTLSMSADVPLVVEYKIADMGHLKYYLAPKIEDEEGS
Assay: ITC; 16.8 uM PCNA in the cell, 282 uM PIP1 peptide in the syringe; 35 °C; PBS pH 7.0, 1 mM TCEP; fitted to a 1:1 binding model (one set of identical sites)
Details: both partners purified
observed property: Kd (µM)
Answers are plain numbers, in µM.

Data point: QSKISSFL [RTEL1 PIP1 peptide (canonical PIP-box of human RTEL1)] ; Kd = 53.3
